- Test system: human cervix carcinoma (HeLa) cells
- procedure_details: Cytostatic activity, HeLa cell proliferation
- Format: cell-based
- details: mean ± SD of three experiments; highest concentration tested 250 µM; 4 days; read-out: Toxicity (IC50) HeLa
- Description: Murine leukemia (L1210), human T-lymphocyte (CEM) and the human cervix carcinoma (HeLa) cell line were suspended at 300,000–500,000 cells/mL of culture medium, and 100 μL of a cell suspension was added to 100 μL of an appropriate dilution of the test compounds in wells of 96-well microtiter plates. After incubation at 37°C for 2 (L1210), 3 (CEM), or 4 (HeLa) days, the cell number was determined using a Coulter counter. […]
measure_name: IC50 (µM)
Answers are plain numbers, in µM.

# molecule, measured_value
data = [
    ("CN[C@H](CC(C)C)C(=O)N[C@H]1C(=O)N[C@@H](CC(N)=O)C(=O)N[C@H]2C(=O)N[C@H]3C(=O)N[C@H](C(=O)N[C@H](C(=O)NCC(=O)Nc4ccc(N5CCOCC5)cc4)c4cc(O)cc(O)c4-c4cc3ccc4O)[C@H](O)c3ccc(c(Cl)c3)Oc3cc2cc(c3O[C@@H]2O[C@H](CO)[C@@H](O)[C@H](O)[C@H]2O[C@H]2C[C@](C)(N)[C@H](O)[C@H](C)O2)Oc2ccc(cc2Cl)[C@H]1O [Vanc-8]", 107),
]

Incoming: Query (molecule): CN[C@H](CC(C)C)C(=O)N[C@H]1C(=O)N[C@@H](CC(N)=O)C(=O)N[C@H]2C(=O)N[C@H]3C(=O)N[C@H](C(=O)N[C@H](C(=O)NCC(=O)Nc4ccc(F)cc4F)c4cc(O)cc(O)c4-c4cc3ccc4O)[C@H](O)c3ccc(c(Cl)c3)Oc3cc2cc(c3O[C@@H]2O[C@H](CO)[C@@H](O)[C@H](O)[C@H]2O[C@H]2C[C@](C)(N)[C@H](O)[C@H](C)O2)Oc2ccc(cc2Cl)[C@H]1O [Vanc-16] ; field requested: IC50
Outgoing: 184

====

- System: human cervix carcinoma (HeLa) cells
- procedure_details: Cytostatic activity, HeLa cell proliferation
- Assay type: cell-based
- details: mean ± SD of three experiments; highest concentration tested 250 µM; 4 days; read-out: Toxicity (IC50) HeLa
Hi there, I'd appreciate the recorded IC50 for every entry that follows.
One number for each entry, in µM.

Consider the following items and state reported IC50 for each.
1. CNC(CC(C)C)C(=O)NC1C(=O)NC(CC(N)=O)C(=O)NC2C(=O)NC3C(=O)NC(C(=O)NC(C(=O)NCC(=O)Nc4ccc(-c5cn(-c6ccc(OC)cc6)nn5)cc4)c4cc(O)cc(O)c4-c4cc3ccc4O)C(O)c3ccc(c(Cl)c3)Oc3cc2cc(c3OC2OC(CO)C(O)C(O)C2OC2CC(C)(N)C(O)C(C)O2)Oc2ccc(cc2Cl)C1O (centres unmarked)
2. CNC(CC(C)C)C(=O)NC1C(=O)NC(CC(N)=O)C(=O)NC2C(=O)NC3C(=O)NC(C(=O)NC(C(=O)NCC(=O)Nc4ccc(-c5ccccc5)cc4)c4cc(O)cc(O)c4-c4cc3ccc4O)C(O)c3ccc(c(Cl)c3)Oc3cc2cc(c3OC2OC(CO)C(O)C(O)C2OC2CC(C)(N)C(O)C(C)O2)Oc2ccc(cc2Cl)C1O (centres unmarked)

Outgoing:
25
105

====

- Test system: S. aureus VRSA
- procedure_details: MIC, broth microdilution, vancomycin-resistant S. aureus (VRSA)
- Assay type: cell-based, Staphylococcus aureus
- details: VRSA; ratio of MIC of vancomycin and MIC of analogue
measure_name: MIC-fold improvement vs. vancomycin
Give bare numbers.

# compound, MIC-fold improvement vs. vancomycin
data = [
    ("CNC(CC(C)C)C(=O)NC1C(=O)NC(CC(N)=O)C(=O)NC2C(=O)NC3C(=O)NC(C(=O)NC(C(=O)NCCCNC(=O)c4ccc5cc(OC)ccc5c4)c4cc(O)cc(O)c4-c4cc3ccc4O)C(O)c3ccc(c(Cl)c3)Oc3cc2cc(c3OC2OC(CO)C(O)C(O)C2OC2CC(C)(N)C(O)C(C)O2)Oc2ccc(cc2Cl)C1O (stereo not drawn)", 32),
    ("CN[C@H](CC(C)C)C(=O)N[C@H]1C(=O)N[C@@H](CC(N)=O)C(=O)N[C@H]2C(=O)N[C@H]3C(=O)N[C@H](C(=O)N[C@H](C(=O)NCC(=O)Nc4ccc5c(c4)Cc4ccccc4-5)c4cc(O)cc(O)c4-c4cc3ccc4O)[C@H](O)c3ccc(c(Cl)c3)Oc3cc2cc(c3O[C@@H]2O[C@H](CO)[C@@H](O)[C@H](O)[C@H]2O[C@H]2C[C@](C)(N)[C@H](O)[C@H](C)O2)Oc2ccc(cc2Cl)[C@H]1O", 64),
    ("CN[C@H](CC(C)C)C(=O)N[C@H]1C(=O)N[C@@H](CC(N)=O)C(=O)N[C@H]2C(=O)N[C@H]3C(=O)N[C@H](C(=O)N[C@H](C(=O)NCC(=O)Nc4ccc(Nc5ccccc5)cc4)c4cc(O)cc(O)c4-c4cc3ccc4O)[C@H](O)c3ccc(c(Cl)c3)Oc3cc2cc(c3O[C@@H]2O[C@H](CO)[C@@H](O)[C@H](O)[C@H]2O[C@H]2C[C@](C)(N)[C@H](O)[C@H](C)O2)Oc2ccc(cc2Cl)[C@H]1O", 64),
]

Consider the following items and state reported MIC-fold improvement vs. vancomycin for each.
1. CNC(CC(C)C)C(=O)NC1C(=O)NC(CC(N)=O)C(=O)NC2C(=O)NC3C(=O)NC(C(=O)NC(C(=O)NCCCNC(=O)c4cc5ccccc5[nH]4)c4cc(O)cc(O)c4-c4cc3ccc4O)C(O)c3ccc(c(Cl)c3)Oc3cc2cc(c3OC2OC(CO)C(O)C(O)C2OC2CC(C)(N)C(O)C(C)O2)Oc2ccc(cc2Cl)C1O (stereo not drawn)
2. CN[C@H](CC(C)C)C(=O)N[C@H]1C(=O)N[C@@H](CC(N)=O)C(=O)N[C@H]2C(=O)N[C@H]3C(=O)N[C@H](C(=O)N[C@H](C(=O)NCC(=O)Nc4ccc(C(F)(F)F)cc4)c4cc(O)cc(O)c4-c4cc3ccc4O)[C@H](O)c3ccc(c(Cl)c3)Oc3cc2cc(c3O[C@@H]2O[C@H](CO)[C@@H](O)[C@H](O)[C@H]2O[C@H]2C[C@](C)(N)[C@H](O)[C@H](C)O2)Oc2ccc(cc2Cl)[C@H]1O
3. CCCCC#Cc1ccc(NC(=O)CNC(=O)[C@H]2NC(=O)[C@H]3NC(=O)[C@H](NC(=O)[C@@H]4NC(=O)[C@H](CC(N)=O)NC(=O)[C@H](NC(=O)[C@@H](CC(C)C)NC)[C@H](O)c5ccc(c(Cl)c5)Oc5cc4cc(c5O[C@@H]4O[C@H](CO)[C@@H](O)[C@H](O)[C@H]4O[C@H]4C[C@](C)(N)[C@H](O)[C@H](C)O4)Oc4ccc(cc4Cl)[C@H]3O)c3ccc(O)c(c3)-c3c(O)cc(O)cc32)cc1

Outgoing:
1. 64
2. 32
3. 64

====

- Test system: human T-lymphocyte (CEM) cells
- procedure_details: Cytostatic activity, CEM cell proliferation
- Type: cell-based
- details: mean ± SD of three experiments; highest concentration tested 250 µM; 3 days; read-out: Toxicity (IC50) CEM
- Method: Murine leukemia (L1210), human T-lymphocyte (CEM) and the human cervix carcinoma (HeLa) cell line were suspended at 300,000–500,000 cells/mL of culture medium, and 100 μL of a cell suspension was added to 100 μL of an appropriate dilution of the test compounds in wells of 96-well microtiter plates. After incubation at 37°C for 2 (L1210), 3 (CEM), or 4 (HeLa) days, the cell number was determined using a Coulter counter. […]
measure_name: IC50 (µM)
Give bare numbers, in µM.

# molecule, unit_tag, IC50
records = [
    ("CNC(CC(C)C)C(=O)NC1C(=O)NC(CC(N)=O)C(=O)NC2C(=O)NC3C(=O)NC(C(=O)NC(C(=O)NCC(=O)NC4c5ccccc5-c5ccccc54)c4cc(O)cc(O)c4-c4cc3ccc4O)C(O)c3ccc(c(Cl)c3)Oc3cc2cc(c3OC2OC(CO)C(O)C(O)C2OC2CC(C)(N)C(O)C(C)O2)Oc2ccc(cc2Cl)C1O (stereo not drawn) [Vanc-90]", "µM", 68),
]

Incoming: Observed IC50 on human T-lymphocyte (CEM) cells for CN[C@H](CC(C)C)C(=O)N[C@H]1C(=O)N[C@@H](CC(N)=O)C(=O)N[C@H]2C(=O)N[C@H]3C(=O)N[C@H](C(=O)N[C@H](C(=O)NCCNC(=O)/C=C/c4ccc(C)cc4)c4cc(O)cc(O)c4-c4cc3ccc4O)[C@H](O)c3ccc(c(Cl)c3)Oc3cc2cc(c3O[C@@H]2O[C@H](CO)[C@@H](O)[C@H](O)[C@H]2O[C@H]2C[C@](C)(N)[C@H](O)[C@H](C)O2)Oc2ccc(cc2Cl)[C@H]1O [Vanc-53] , please.
Outgoing: 152

Where do these numbers come from? They come from paper PMC6001238.
